Values from the supplement of paper PMC9262897

system: E. coli TESEC Mtb DapB; experiment: growth (OD600 after 10 h); higher = more growth (less inhibition); conditions: arabinose induction (level): Low; compound 0.1 mM; raw OD600 reference: median of DMSO wells 0.227, cell-free background 0.041
Assign 1.0 whenever growth does not fall below 0.2; assign 0.0 whenever it does.

molecule: Cc1cn([C@H]2C=C[C@@H](CO)O2)c(=O)[nH]c1=O
cat: 0.0

Problem: Hi team, for COc1ccc(C[C@@H]2c3cc(OC)c(OC)cc3CC[N@+]2(C)CCC(=O)OCCCCCOC(=O)CC[N@@+]2(C)CCc3cc(OC)c(OC)cc3[C@H]2Cc2ccc(OC)c(OC)c2)cc1OC [Cisatracurium besylate] , is the recorded growth at or above 0.2?
Result: 1.0

Problem: Hi team, for CC(=O)Oc1ccccc1C(=O)Nc1ncc([N+](=O)[O-])s1 [Nitazoxanide] , is the recorded growth at or above 0.2?
Result: 0.0
